biological target: HCMV V823A polymerase (Human cytomegalovirus, UniProt P08546, V823A); construct: made in house; test: In vitro polymerase assay, mutant HCMV polymerase V823A; type: biochemical; settings: Table 3
Sequence (P08546 whole entry V823A): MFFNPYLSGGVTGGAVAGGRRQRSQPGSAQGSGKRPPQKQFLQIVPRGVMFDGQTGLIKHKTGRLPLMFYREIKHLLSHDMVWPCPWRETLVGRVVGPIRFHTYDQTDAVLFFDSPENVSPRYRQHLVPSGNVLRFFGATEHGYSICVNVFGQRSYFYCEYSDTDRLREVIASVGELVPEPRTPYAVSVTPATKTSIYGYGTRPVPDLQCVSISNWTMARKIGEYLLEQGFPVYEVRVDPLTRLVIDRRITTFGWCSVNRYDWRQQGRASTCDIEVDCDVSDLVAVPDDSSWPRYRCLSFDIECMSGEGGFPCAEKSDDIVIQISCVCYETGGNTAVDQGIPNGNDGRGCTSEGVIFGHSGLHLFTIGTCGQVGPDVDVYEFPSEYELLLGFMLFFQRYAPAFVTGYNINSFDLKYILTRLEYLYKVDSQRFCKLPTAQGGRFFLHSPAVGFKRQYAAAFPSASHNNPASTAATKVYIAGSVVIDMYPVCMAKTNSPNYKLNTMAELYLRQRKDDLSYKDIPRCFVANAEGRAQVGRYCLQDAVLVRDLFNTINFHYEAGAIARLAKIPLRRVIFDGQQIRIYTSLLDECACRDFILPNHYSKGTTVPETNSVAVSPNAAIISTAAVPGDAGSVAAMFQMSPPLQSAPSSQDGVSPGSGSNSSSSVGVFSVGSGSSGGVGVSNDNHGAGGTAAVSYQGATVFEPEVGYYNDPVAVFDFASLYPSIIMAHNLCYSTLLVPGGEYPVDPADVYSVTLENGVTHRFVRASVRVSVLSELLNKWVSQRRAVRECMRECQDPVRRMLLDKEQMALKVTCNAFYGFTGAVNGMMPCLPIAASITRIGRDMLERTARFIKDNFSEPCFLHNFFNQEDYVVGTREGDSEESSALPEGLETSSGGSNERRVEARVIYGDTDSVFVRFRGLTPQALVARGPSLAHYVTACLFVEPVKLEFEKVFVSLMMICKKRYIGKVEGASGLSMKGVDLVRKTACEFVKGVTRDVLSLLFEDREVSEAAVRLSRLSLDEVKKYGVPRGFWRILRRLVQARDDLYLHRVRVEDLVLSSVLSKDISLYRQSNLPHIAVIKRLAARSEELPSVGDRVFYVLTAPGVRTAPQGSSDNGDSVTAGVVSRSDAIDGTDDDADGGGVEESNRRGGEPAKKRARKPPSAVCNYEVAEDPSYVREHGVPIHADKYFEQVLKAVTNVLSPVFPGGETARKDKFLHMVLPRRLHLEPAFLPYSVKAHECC
reportedMetric: IC50
Value and unit, in that order.

Request: // lookup IC50 | system=HCMV V823A polymerase (Human cytomegalovirus, UniProt P08546, V823A) | key= Cn1cc(C(=O)NCc2ccc(Cl)cc2)c(=O)c2cc(/C=C\CO)cc(F)c21 [Compound 1]
Result: 17.2 µM

---

system: HSV-2 MS; experiment: Plaque reduction assay, HSV-2 MS; format: cell-based; conditions: Human alphaherpesvirus 2; Table 1, plaque reduction, Vero cells; read-out: IC50 (uM), HSV-2 MS
reportedMetric: IC50 (µM)
One number for each entry, in µM.

Request: Which IC50 is reported for this compound? Nc1nc2c(ncn2COCCO)c(=O)[nH]1 [ACV, Acyclovir, reference compound]
Result: 10

---

tested on: HCMV AD169-M1 (V823A, V824L); assay: Plaque reduction assay, 4-oxo-DHQ resistant HCMV AD169-M1; type: cell-based; settings: Table 4, plaque reduction, resistant mutant; read-out: HCMV AD169 - M1 IC50
reportedMetric: pIC50
Give bare numbers, as −log10 of the molar value.

Request: For HCMV AD169-M1 (V823A, V824L), provide pIC50 of `Cn1cc(C(=O)NCc2ccc(Cl)cc2)c(=O)c2cc(/C=C\CO)cc(F)c21` please.
Result: 5.33

---

system: HSV-1 DJL; assay: Plaque reduction assay, HSV-1 DJL; assay type: cell-based; conditions: Table 1, plaque reduction, Vero cells
What IC50 was measured for each of the following?
Numbers only, in µM.

List IC50 for every entry below, keeping the order given.
1. O=C(NCc1ccc(Cl)cc1)c1cn(N2CCOCC2)c2ccc(CN3CCOCC3)cc2c1=O [Compound 5]
2. Cn1cc(C(=O)NCc2ccc(Cl)cc2)c(=O)c2cc(CN3CCOCC3)ccc21 [Compound 2]
3. Cn1cc(C(=O)NCc2ccc(Cl)cc2)c(=O)c2cc(CN3CCOCC3)sc21 [Compound 3]
4. Cn1cc(C(=O)NCc2ccc(Cl)cc2)c(=O)c2cc(/C=C\CO)cc(F)c21 [Compound 1]
5. O=C(NCc1ccc(Cl)cc1)c1cn2c3c(cc(CN4CCOCC4)cc3c1=O)OCC2 [Compound 4]

Result:
2.7
2.6
1.8
2.5
2.2

---

biological target: HCMV V823A/V824L polymerase (Human cytomegalovirus, UniProt P08546, V823A/V824L); construct: made in house; test: In vitro polymerase assay, mutant HCMV polymerase V823A/V824L; assay type: biochemical; details: Table 3
Sequence (P08546 whole entry V823A/V824L): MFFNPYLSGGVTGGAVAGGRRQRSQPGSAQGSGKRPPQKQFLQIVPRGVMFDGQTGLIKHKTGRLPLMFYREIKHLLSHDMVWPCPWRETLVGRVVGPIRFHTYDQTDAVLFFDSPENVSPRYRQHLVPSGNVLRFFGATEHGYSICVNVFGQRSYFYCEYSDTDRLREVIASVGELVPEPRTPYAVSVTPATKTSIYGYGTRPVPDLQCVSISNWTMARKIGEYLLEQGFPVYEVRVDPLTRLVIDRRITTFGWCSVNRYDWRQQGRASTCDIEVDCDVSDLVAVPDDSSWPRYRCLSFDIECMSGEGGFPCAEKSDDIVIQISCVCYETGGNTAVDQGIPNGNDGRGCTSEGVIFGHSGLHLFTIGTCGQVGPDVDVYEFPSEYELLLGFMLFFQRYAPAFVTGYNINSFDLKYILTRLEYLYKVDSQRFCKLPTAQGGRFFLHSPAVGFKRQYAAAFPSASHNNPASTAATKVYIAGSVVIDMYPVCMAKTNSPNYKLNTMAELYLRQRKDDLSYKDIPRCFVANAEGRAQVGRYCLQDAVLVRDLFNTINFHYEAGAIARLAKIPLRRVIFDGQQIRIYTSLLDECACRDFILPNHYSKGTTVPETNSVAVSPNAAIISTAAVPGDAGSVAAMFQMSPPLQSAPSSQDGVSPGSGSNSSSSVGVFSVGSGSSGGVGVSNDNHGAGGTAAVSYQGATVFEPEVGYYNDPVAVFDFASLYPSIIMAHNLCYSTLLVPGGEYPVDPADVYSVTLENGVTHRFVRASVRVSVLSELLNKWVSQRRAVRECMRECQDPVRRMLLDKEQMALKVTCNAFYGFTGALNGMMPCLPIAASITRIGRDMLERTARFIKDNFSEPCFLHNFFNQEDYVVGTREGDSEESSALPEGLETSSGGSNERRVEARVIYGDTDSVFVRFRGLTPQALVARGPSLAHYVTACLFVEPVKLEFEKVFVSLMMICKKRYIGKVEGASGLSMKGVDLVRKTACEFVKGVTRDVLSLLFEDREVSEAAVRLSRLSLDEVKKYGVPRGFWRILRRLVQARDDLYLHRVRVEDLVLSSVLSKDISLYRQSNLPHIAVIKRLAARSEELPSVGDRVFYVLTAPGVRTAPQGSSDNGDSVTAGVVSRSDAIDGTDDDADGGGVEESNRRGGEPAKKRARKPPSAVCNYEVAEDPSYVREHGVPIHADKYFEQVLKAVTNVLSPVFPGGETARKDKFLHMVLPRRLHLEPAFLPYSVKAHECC
reportedMetric: IC50 (µM)
Give bare numbers, in µM.

Request: Can you look up the measured IC50 of `Cn1cc(C(=O)NCc2ccc(Cl)cc2)c(=O)c2cc(/C=C\CO)cc(F)c21` for me?
Result: 42.9

---

tested on: HSV-1 Patton; experiment: Plaque reduction assay, HSV-1 Patton; assay type: cell-based; settings: Table 1, plaque reduction, Vero cells
Consider the following molecules; for each one, report its IC50.
Give bare numbers, in µM.

querySmiles	IC50 [µM]
Cn1cc(C(=O)NCc2ccc(Cl)cc2)c(=O)c2cc(CN3CCOCC3)sc21	7.7
O=C(NCc1ccc(Cl)cc1)c1cn2c3c(cc(CN4CCOCC4)cc3c1=O)OCC2	4.3

Provide IC50 for all items below, preserving their order.
1. O=C(NCc1ccc(Cl)cc1)c1cn(N2CCOCC2)c2ccc(CN3CCOCC3)cc2c1=O
2. Cn1cc(C(=O)NCc2ccc(Cl)cc2)c(=O)c2cc(CN3CCOCC3)ccc21

Result:
1. 10
2. 5.3
